systemTested: human serum albumin (HSA) (Homo sapiens)
Construct: gene ALB; mature serum albumin, 585 residues (signal and propeptide removed)
Sequence (P02768 25-609): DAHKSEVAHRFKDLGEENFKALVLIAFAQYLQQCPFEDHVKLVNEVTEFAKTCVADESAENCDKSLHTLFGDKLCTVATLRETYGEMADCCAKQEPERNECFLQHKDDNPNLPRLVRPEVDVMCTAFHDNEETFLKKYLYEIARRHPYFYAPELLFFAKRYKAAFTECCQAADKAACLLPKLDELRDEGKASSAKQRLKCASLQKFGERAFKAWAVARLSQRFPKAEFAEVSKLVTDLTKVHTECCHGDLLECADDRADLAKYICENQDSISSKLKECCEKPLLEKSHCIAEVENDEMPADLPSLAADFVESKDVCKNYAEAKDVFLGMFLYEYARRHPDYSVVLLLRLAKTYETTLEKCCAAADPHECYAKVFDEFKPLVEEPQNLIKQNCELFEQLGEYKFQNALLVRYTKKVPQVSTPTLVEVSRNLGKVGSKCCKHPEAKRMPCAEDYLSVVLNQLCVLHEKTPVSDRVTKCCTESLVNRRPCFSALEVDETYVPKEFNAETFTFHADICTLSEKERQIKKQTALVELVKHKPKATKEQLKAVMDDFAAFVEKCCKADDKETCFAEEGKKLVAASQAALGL
assayMethodText: tryptophan fluorescence quenching, modified Stern-Volmer
Assay type: binding
runParameters: 298 K, pH 7.4, 0.1 M Tris, 0.1 M NaCl, 1 µM HSA, excitation 280 nm; mainly site II (subdomain IIIA)
recordedEndpoint: Ka (×10^4 M^-1)

Worked cases, Ka (×10^4 M^-1) given:
Input line: What value of Ka (×10^4 M^-1) has been reported for the following molecule? CC(C)(C)CC(=O)N1c2ccc(Cl)cc2C(=O)N(N=Cc2ccccc2F)C1c1ccccc1 (stereo not shown) [3d]
Output line: 2.46 × 10^4 M^−1

Input line: What value of Ka (×10^4 M^-1) has been reported for the following molecule? CC(C)(C)CC(=O)N1c2ccc(Cl)cc2C(=O)N(N=Cc2ccc(F)cc2)C1c1ccccc1 (stereo not shown) [3b]
Output line: 2.33 × 10^4 M^−1

Input line: What value of Ka (×10^4 M^-1) has been reported for the following molecule? CC(C)(C)CC(=O)N1c2ccc(Cl)cc2C(=O)N(N=Cc2cccc(F)c2)C1c1ccccc1 (stereo not shown) [3c]
Output line: 2.73 × 10^4 M^−1

Now for another entry.
Input line: What value of Ka (×10^4 M^-1) has been reported for the following molecule? CC(C)(C)CC(=O)N1c2ccc(Cl)cc2C(=O)N(N=Cc2ccccc2)C1c1ccccc1 (stereo not shown) [3a]
Output line: 2.16 × 10^4 M^−1
